meta.source: patent US4599414A

# Test system: contractile response to histamine, terminal ileum
# assay_protocol: Antihistaminic action: inhibition of contractile response to histamine (10^-6 M) in isolated terminal ileum
# Assay type: cell-based, guinea-pig
# cond: Cavia porcellus; antagonist 10^-6 M, after 1st washing; read-out: Inhibitory rate after 1st washing
molecules and their reported inhibition at 1 µM
value_kind: inhibition at 1 µM (%)

>>> quantitative_result("Cn1c(=O)c2c(ncn2CCCN2CCCN(c3ccccc3)CC2)n(C)c1=O")
10
>>> quantitative_result("Cn1c(=O)c2c(ncn2CCCN2CCCN(Cc3ccc([N+](=O)[O-])cc3)CC2)n(C)c1=O")
46
>>> quantitative_result("Cn1c(=O)c2c(ncn2CCCN2CCCN(Cc3ccccc3Cl)CC2)n(C)c1=O")
100
>>> quantitative_result("Cn1c(=O)c2c(ncn2CCCN2CCCN(Cc3ccc(Cl)cc3Cl)CC2)n(C)c1=O")
100
>>> quantitative_result("Cn1c(=O)c2c(ncn2CCCN2CCCN(Cc3ccc(F)cc3)CC2)n(C)c1=O")
27
>>> quantitative_result("Cn1c(=O)c2c(ncn2CCCN2CCCN(Cc3ccc(Cl)cc3)CC2)n(C)c1=O")
84

* * *

# Tested on: contractile response to histamine, terminal ileum
# assay_protocol: Antihistaminic action: inhibition of contractile response to histamine (10^-6 M) in isolated terminal ileum
# Type: cell-based, guinea-pig
# cond: Cavia porcellus, 0.05 h; antagonist 10^-7 M, 3 min contact, before washing; read-out: Inhibitory rate before washing
Reported inhibition at 0.1 µM values follow for various compounds
value_kind: inhibition at 0.1 µM (%)

>>> quantitative_result("Cn1c(=O)c2c(ncn2CCCN2CCCN(Cc3ccc(Cl)cc3Cl)CC2)n(C)c1=O")
78
>>> quantitative_result("Cn1c(=O)c2c(ncn2CCCN2CCCN(Cc3ccccc3)CC2)n(C)c1=O")
78
>>> quantitative_result("Cn1c(=O)c2c(ncn2CCCN2CCCN(Cc3ccccc3Cl)CC2)n(C)c1=O")
80
